Entry source: ChEMBL document CHEMBL5360601

- test.method.notes: Metabolic stability in human liver microsomes assessed as parent compound remaining
- Assay type: ADME, Microsome
measured.attribute: Stability (%)

Please review the entries below; each comes with its answer.
>  <structure.as.smiles>
CCOC(=O)c1c(N2CCN(C(c3ccccc3)c3ccccc3)CC2)c2ccccc2n(C)c1=O

>  <measured.attribute>
Stability

>  <experimental.result>
49

$$$$
>  <structure.as.smiles>
Cn1c(=O)c([N+](=O)[O-])c(N2CCN(CCc3ccccc3)CC2)c2ccccc21

>  <measured.attribute>
Stability

>  <experimental.result>
28

$$$$
>  <structure.as.smiles>
Cn1c(=O)c(C#N)c(N2CCN(C(c3ccc(F)cc3)c3ccc(F)cc3)CC2)c2nc(C#N)ccc21

>  <measured.attribute>
Stability

>  <experimental.result>
92

$$$$
>  <structure.as.smiles>
Cn1c(=O)c(C#N)c(N2CCN(C(c3ccc(F)cc3)c3ccc(F)cc3)CC2)c2cc(F)ccc21

>  <measured.attribute>
Stability

>  <experimental.result>
84

$$$$
>  <structure.as.smiles>
C#CCCC1(CCCN2CCN(c3c([N+](=O)[O-])c(=O)n(C)c4ccc(Br)nc34)CC2)N=N1

>  <measured.attribute>
Stability

>  <experimental.result>
10

$$$$
>  <structure.as.smiles>
Cn1c(=O)c([N+](=O)[O-])c(N2CCN(C(c3ccc(F)cc3)c3ccc(F)cc3)CC2)c2ncccc21

>  <measured.attribute>
Stability

>  <experimental.result>
92

$$$$

(A) Cn1c(=O)c([N+](=O)[O-])c(N2CCN(C(c3ccc(F)cc3)c3ccc(F)cc3)CC2)c2cc(F)ccc21
(B) Cn1c(=O)c([N+](=O)[O-])c(N2CCN(Cc3ccccc3)CC2)c2cc(F)ccc21
Could you point out whether the larger Stability belongs to A or to B ? Answer by quoting the chosen item's label.
A
(A: 89%, B: 43%)

----------
- tested.target: Diacylglycerol kinase alpha (Homo sapiens, UniProt P23743)
- Sequence (P23743 whole entry): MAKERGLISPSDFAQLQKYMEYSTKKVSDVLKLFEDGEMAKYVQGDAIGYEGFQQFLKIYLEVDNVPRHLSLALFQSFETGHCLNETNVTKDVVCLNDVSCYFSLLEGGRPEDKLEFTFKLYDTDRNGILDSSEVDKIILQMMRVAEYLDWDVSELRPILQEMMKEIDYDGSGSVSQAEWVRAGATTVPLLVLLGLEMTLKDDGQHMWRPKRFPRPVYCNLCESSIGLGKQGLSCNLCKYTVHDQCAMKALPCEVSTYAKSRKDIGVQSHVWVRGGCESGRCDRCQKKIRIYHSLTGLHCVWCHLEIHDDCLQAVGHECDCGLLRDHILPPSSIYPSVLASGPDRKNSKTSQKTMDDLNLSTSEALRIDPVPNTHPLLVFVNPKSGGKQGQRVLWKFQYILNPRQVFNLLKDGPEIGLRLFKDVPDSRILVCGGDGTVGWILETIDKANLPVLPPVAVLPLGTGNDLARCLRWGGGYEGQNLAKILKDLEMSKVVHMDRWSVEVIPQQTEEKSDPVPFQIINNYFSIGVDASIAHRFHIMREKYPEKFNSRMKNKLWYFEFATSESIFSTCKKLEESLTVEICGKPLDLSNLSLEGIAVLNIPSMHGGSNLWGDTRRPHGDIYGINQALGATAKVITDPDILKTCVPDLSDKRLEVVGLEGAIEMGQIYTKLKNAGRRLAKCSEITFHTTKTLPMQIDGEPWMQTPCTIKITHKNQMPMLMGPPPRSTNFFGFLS
- test.method.notes: Inhibition of DGK alpha (unknown origin)
pIC50: −log10 of the molar value.
measured.attribute: pIC50

(A) Cc1nc2sccn2c(=O)c1CCN1CCC(=C(c2ccc(F)cc2)c2ccc(F)cc2)CC1
(B) Cc1nc2sccn2c(=O)c1CCN1CCC(=C(c2ccccc2)c2ccc(F)cc2)CC1
Could you point out whether the larger pIC50 belongs to A or to B ? Answer by quoting the chosen item's label.
A

----------
- test.method.notes: Clearance in C57BL6 mouse at 1 mg/kg, iv administered as bolus dose measured upto 72 hrs by LC/MS/MS analysis
- Format: ADME, organism-based
- study.conditions: in vivo
measured.attribute: clearance (mL/min/kg)
Quick note: give the figure in mL/min/kg, leave out the unit.

Quick one: clearance of `Cn1c(=O)c([N+](=O)[O-])c(N2CCN(C(c3ccc(F)cc3)c3ccc(F)cc3)CC2)c2nc(C#N)ccc21` ?
1.9

----------
- test.method.notes: Volume of distribution at steady state in C57BL6 mouse at 1 mg/kg, iv administered as bolus dose measured upto 72 hrs by LC/MS/MS analysis
- Type: ADME, organism-based
- study.conditions: in vivo, read-out: Vdss
measured.attribute: Vd (L/kg)
Quick note: give the figure in L/kg, leave out the unit.

Quick one: Vd of `Cn1c(=O)c([N+](=O)[O-])c(N2CCN(C(c3ccc(F)cc3)c3ccc(F)cc3)CC2)c2nc(C#N)ccc21` ?
3.9
